# Study system: T1, human CD137 (human, UniProt Q07011 24-186)
# T1 construct: Soluble analyte in the Biacore assay; also called 4-1BB; hCD137
# T1 sequence (Q07011 24-186 limits assumed): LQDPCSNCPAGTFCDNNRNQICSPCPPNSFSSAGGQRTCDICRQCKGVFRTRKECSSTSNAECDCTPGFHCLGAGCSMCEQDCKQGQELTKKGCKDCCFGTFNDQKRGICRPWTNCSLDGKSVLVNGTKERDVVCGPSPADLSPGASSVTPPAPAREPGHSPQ
# Assay info: SPR Biacore T200, IgG captured on protein A, antigen as analyte, 25 C;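 also: antigens flowed over a CM3 chip for 120 s association, KD derived from ka and kd, running buffer (ACES, NaCl, Tween20, pH 7.4) served as blank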
Measured attribute: koff (s⁻¹)
Provide the reading as a plain figure in s⁻¹.

{"Binder": "dBBDu_186 / dBBDu_L098 (antibody, human IgG1, V domains shown, Tested as IgG (human IgG1 constant region, kappa light chain); also called dBBDu186/L098) VH: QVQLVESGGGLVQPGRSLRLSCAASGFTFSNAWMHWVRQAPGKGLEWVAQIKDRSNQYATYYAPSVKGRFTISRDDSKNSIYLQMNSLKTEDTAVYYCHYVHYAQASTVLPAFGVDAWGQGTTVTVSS VL: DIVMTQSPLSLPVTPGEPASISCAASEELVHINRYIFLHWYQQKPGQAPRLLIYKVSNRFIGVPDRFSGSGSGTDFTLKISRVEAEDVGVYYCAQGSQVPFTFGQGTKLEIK", "koff [s⁻¹]": 0.000534}

Proceeding to the next binder to report its koff.
For dBBDu_186 / dBBDu_L108 (antibody, human IgG1, V domains shown, Tested as IgG (human IgG1 constant region, kappa light chain); also called dBBDu186/L108) VH: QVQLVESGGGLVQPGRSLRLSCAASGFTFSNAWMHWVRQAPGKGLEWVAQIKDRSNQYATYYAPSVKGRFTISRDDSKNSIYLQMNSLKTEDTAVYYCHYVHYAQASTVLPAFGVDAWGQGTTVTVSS VL: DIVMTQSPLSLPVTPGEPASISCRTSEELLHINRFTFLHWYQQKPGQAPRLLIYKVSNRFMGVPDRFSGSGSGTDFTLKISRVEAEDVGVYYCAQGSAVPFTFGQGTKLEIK the binder record lists koff as 0.00081
